system: Escherichia coli; assay: Inhibition of LuxR-dependent quorum sensing activity in Escherichia coli harboring reporter plasmid LuxI-GFP assessed as reduction in 3-oxo-C6-HSL-induced GFP expression up to 100 ug/ml measured every 15 mins for 14 hrs by fluorescence assay
The source made the active and inactive calls. The rule behind the calls is not given here.
Measured endpoint: inhibition

Smiles repr	Val
COC(=O)c1ccc(-c2ccnc3ccccc23)cn1	inactive
O=C(O)c1ccc(-c2nccs2)cn1	inactive
CCCOc1ccc(C(=O)O)nc1	Active
O=C(O)c1ccc(-c2ccco2)cn1	Active
O=C(O)COc1ccc(C(=O)O)nc1	inactive
COc1ccc2nccc(-c3ccc(C(=O)O)nc3)c2c1	inactive

Lab note: next compound to report on.
Report its inhibition with Escherichia coli as the test system: O=C(COc1ccc(C(=O)O)nc1)Nc1ccccc1
inactive

----------
test: Inhibition of quorum sensing system in Agrobacterium tumefaciens harboring traG-LacZ reporter fusion measured after 4 hrs by beta-galactosidase reporter gene assay
Measured endpoint: pIC50
Please note pIC50 is a logarithmic value: minus log10 of concentration in mol/L. Answer with that number alone.

Please give the documented pIC50 of O=[N+]([O-])c1cc[n+]([O-])cc1
3.77

Hey, just so you know, these numbers are from ChEMBL document CHEMBL4002598.
